FYI, the data here is from patent US10787447B2.

TARGET_OR_SYSTEM: human muscarinic M4 receptor (Homo sapiens, UniProt P08173)
ASSAY_SUMMARY: Alphascreen Surefire phospho-ERK1/2 functional assay, M4
Assay type: cell-based
STUDY_CONDITIONS: CHO, read-out: % Emax cf. ACh, M4, CHO cells stably expressing human M4; Emax relative to ACh
Procedure: ERK1/2 phosphorylation is a downstream consequence of both Gq/11 and Gi/o protein coupled receptor activation, making it highly suitable for the assessment of M1, M3 (Gq/11 coupled) and M2, M4 receptors (Gi/o coupled), rather than using different assay formats for different receptor subtypes. CHO cells stably expressing the human muscarinic M1, M2, M3 or M4 receptor were plated (25K/well) onto 96-well tissue culture plates in MEM-alpha+10% dialysed FBS. […]
If the reported Emax equals or exceeds 40%, assign fulfilled. If not, assign not fulfilled.

Solved cases below.
CCOC(=O)N1C2COCC1CC(N1CCC(C(=O)NCC3CCC3)CC1)C2 (single isomer, unassigned) [Example 7-3 Isomer 1]	fulfilled
CCOC(=O)N1C2COCC1CC(N1CCC(n3cc(C)cn3)CC1)C2 (single isomer, unassigned) [Example 1-3 Isomer 1]	fulfilled
CCOC(=O)N1C2COCC1CC(N1CCC3(CC1)CNC(=O)C3)C2 (single isomer, unassigned) [Example 5-2 Isomer 1]	not fulfilled

Req: Reported Emax reaches at least 40% for CCOC(=O)N1C2COCC1CC(N1CCC(c3cccc(OC)n3)CC1)C2 (single isomer, unassigned) [Example 2-1 Isomer 1] ?
Resp: not fulfilled

Req: Reported Emax reaches at least 40% for CCOC(=O)N1C2COCC1CC(N1CCC(n3cccn3)CC1)C2 (single isomer, unassigned) [Example 1-1 Isomer 1] ?
Resp: fulfilled

Req: Reported Emax reaches at least 40% for CCOC(=O)N1C2COCC1CC(N1CCC(C(=O)N3CCCCCC3)CC1)C2 (single isomer, unassigned) [Example 7-4 Isomer 1] ?
Resp: fulfilled

Req: Reported Emax reaches at least 40% for CCOC(=O)N1C2COCC1CC(N1CCC(C(=O)NCC(C)C)CC1)C2 (single isomer, unassigned) [Example 7-2 Isomer 1] ?
Resp: fulfilled

Req: Reported Emax reaches at least 40% for CCOC(=O)N1C2COCC1CC(N1CCC(C#N)(c3ccccn3)CC1)C2 (single isomer, unassigned) [Example 3-1 Isomer 1] ?
Resp: fulfilled

Req: Reported Emax reaches at least 40% for CCOC(=O)N1C2COCC1CC(N1CCC(N(CC(C)(C)C)C(C)=O)CC1)C2 (single isomer, unassigned) [Example 6-2 Isomer 1] ?
Resp: fulfilled

Req: Reported Emax reaches at least 40% for CCOC(=O)N1C2COCC1CC(N1CCC3(CC1)C(=O)Nc1ccccc13)C2 (single isomer, unassigned) [Example 5-5 Isomer 1] ?
Resp: fulfilled

Req: Reported Emax reaches at least 40% for CCOC(=O)N1C2COCC1CC(N1CCC3(CC1)CNC(=O)O3)C2 (single isomer, unassigned) [Example 5-3 Isomer 1] ?
Resp: not fulfilled

---

Field: pEC50. Provide a value for each of the compounds that follow.
TARGET_OR_SYSTEM: human muscarinic M2 receptor (Homo sapiens, UniProt P08172)
Sequence (P08172 whole entry): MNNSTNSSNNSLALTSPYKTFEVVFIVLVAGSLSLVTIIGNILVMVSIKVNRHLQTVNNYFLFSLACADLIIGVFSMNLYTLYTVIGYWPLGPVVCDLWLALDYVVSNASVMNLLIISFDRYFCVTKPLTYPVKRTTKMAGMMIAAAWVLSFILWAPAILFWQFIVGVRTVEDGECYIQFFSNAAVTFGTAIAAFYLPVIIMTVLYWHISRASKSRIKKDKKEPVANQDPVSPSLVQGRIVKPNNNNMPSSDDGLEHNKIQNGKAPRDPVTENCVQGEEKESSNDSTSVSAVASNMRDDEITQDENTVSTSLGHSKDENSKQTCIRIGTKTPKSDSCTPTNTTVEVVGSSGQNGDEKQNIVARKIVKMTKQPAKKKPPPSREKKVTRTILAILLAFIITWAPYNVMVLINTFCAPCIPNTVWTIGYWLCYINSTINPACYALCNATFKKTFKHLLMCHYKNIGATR
ASSAY_SUMMARY: Alphascreen Surefire phospho-ERK1/2 functional assay, M2
Assay type: cell-based
STUDY_CONDITIONS: pEC50 M2, CHO cells stably expressing human M2; phospho-ERK1/2
Procedure: ERK1/2 phosphorylation is a downstream consequence of both Gq/11 and Gi/o protein coupled receptor activation, making it highly suitable for the assessment of M1, M3 (Gq/11 coupled) and M2, M4 receptors (Gi/o coupled), rather than using different assay formats for different receptor subtypes. CHO cells stably expressing the human muscarinic M1, M2, M3 or M4 receptor were plated (25K/well) onto 96-well tissue culture plates in MEM-alpha+10% dialysed FBS. […]
pEC50: −log10 of the molar value.

Reference set (5 entries):
CCOC(=O)N1C2COCC1CC(N1CCC(c3ccc[nH]c3=O)CC1)C2 (single isomer, unassigned) [Example 2-3 Isomer 2]	< 4.70
CCOC(=O)N1C2COCC1CC(N1CCC3(CC1)C(=O)Nc1ccccc13)C2 (single isomer, unassigned) [Example 5-5 Isomer 1]	6.91
CCOC(=O)N1C2COCC1CC(N1CCC(N(CC3(C)CCC3)C(C)=O)CC1)C2 (single isomer, unassigned) [Example 6-4 Isomer 2]	< 4.70
CCOC(=O)N1C2COCC1CC(N1CCC(n3cccn3)CC1)C2 (single isomer, unassigned) [Example 1-1 Isomer 1]	6.24
CCOC(=O)N1C2COCC1CC(N1CCC3(CC1)CC3)C2 (single isomer, unassigned) [Example 5-1 Isomer 1]	< 4.70

Please supply pEC50 for each of the following items, keeping them in order.
1. CCOC(=O)N1C2COCC1CC(N1CCC(c3ccc[nH]c3=O)CC1)C2 (single isomer, unassigned) [Example 2-3 Isomer 1]
2. CCOC(=O)N1C2COCC1CC(N1CCC(c3cccnc3OC)CC1)C2 (single isomer, unassigned) [Example 2-2 Isomer 1]
3. CCOC(=O)N1C2COCC1CC(N1CCC(N(CC3(C)CC3)C(C)=O)CC1)C2 (single isomer, unassigned) [Example 6-3 Isomer 2]
4. CCOC(=O)N1C2COCC1CC(N1CCC(N(Cc3ccccc3)C(C)=O)CC1)C2 (single isomer, unassigned) [Example 6-5 Isomer 1]
5. CCOC(=O)N1C2COCC1CC(N1CCC3(CC1)OC(=O)NC3CC)C2 (single isomer, unassigned) [Example 5-4 Isomer 1a]
6. CCOC(=O)N1C2COCC1CC(N1CCC(N(CC(C)C)C(C)=O)CC1)C2 (single isomer, unassigned) [Example 6-1 Isomer 1]
7. CCOC(=O)N1C2COCC1CC(N1CCC(n3cc(Cl)cn3)CC1)C2 (single isomer, unassigned) [Example 1-2 Isomer 2]

Resp:
[6.54, "< 4.70", "< 4.70", "< 4.70", "< 4.70", "< 4.70", "< 4.70"]

Please supply pEC50 for each of the following items, keeping them in order.
1. CCOC(=O)N1C2COCC1CC(N1CCC(N(CC3(C)CC3)C(C)=O)CC1)C2 (single isomer, unassigned) [Example 6-3 Isomer 1]
2. CCOC(=O)N1C2COCC1CC(N1CCC3(CC1)CNC(=O)C3)C2 (single isomer, unassigned) [Example 5-2 Isomer 2]
3. CCOC(=O)N1C2COCC1CC(N1CCC(N3CC(F)(F)C[C@@H]3CO)CC1)C2 (single isomer, unassigned) [Example 4-1 Isomer 2]

Resp:
1: 6.45; 2: < 4.70; 3: < 4.70

---

TARGET_OR_SYSTEM: human muscarinic M2 receptor (Homo sapiens)
ASSAY_SUMMARY: Alphascreen Surefire phospho-ERK1/2 functional assay, M2
Format: cell-based
STUDY_CONDITIONS: CHO, read-out: % Emax cf. ACh, M2, CHO cells stably expressing human M2; Emax relative to ACh
Field: Emax. Provide a value for each of the molecules that follow.
Kindly report the value followed by its unit.

Please supply Emax for each of the following items, keeping them in order.
1. CCOC(=O)N1C2COCC1CC(N1CCC3(CC1)CNC(=O)C3)C2 (single isomer, unassigned) [Example 5-2 Isomer 2]
2. CCOC(=O)N1C2COCC1CC(N1CCC(n3cccn3)CC1)C2 (single isomer, unassigned) [Example 1-1 Isomer 1]
3. CCOC(=O)N1C2COCC1CC(N1CCC3(CC1)CC3)C2 (single isomer, unassigned) [Example 5-1 Isomer 1]
4. CCOC(=O)N1C2COCC1CC(N1CCC(c3cccnc3OC)CC1)C2 (single isomer, unassigned) [Example 2-2 Isomer 1]
5. CCOC(=O)N1C2COCC1CC(N1CCC(C(=O)NCC3CCC3)CC1)C2 (single isomer, unassigned) [Example 7-3 Isomer 1]
6. CCOC(=O)N1C2COCC1CC(N1CCC3(CC1)CNC(=O)O3)C2 (single isomer, unassigned) [Example 5-3 Isomer 2]

Resp:
["8%", "57%", "8%", "3%", "62%", "4%"]

---

TARGET_OR_SYSTEM: human muscarinic M4 receptor (Homo sapiens, UniProt P08173)
Sequence (P08173 1-479): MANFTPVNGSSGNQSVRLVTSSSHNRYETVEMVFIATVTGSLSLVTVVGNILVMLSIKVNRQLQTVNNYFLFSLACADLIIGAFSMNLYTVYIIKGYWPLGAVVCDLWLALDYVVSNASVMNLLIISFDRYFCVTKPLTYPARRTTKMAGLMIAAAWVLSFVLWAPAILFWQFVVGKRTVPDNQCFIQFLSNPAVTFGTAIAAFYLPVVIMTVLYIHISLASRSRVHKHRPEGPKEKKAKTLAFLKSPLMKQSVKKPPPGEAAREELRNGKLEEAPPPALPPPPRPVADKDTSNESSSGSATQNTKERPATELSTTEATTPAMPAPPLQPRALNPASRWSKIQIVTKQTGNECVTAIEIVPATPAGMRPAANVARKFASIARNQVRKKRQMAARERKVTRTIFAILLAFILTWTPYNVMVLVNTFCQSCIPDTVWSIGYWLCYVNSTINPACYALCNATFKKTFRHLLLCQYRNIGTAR
ASSAY_SUMMARY: Alphascreen Surefire phospho-ERK1/2 functional assay, M4
Format: cell-based
STUDY_CONDITIONS: pEC50 M4, CHO cells stably expressing human M4; phospho-ERK1/2
PROPERTY_LABEL: EC50 (nM)
Answers are plain numbers, in nM.

Reference set (4 entries):
CCOC(=O)N1C2COCC1CC(N1CCC(N3CCCCC3=O)CC1)C2 (single isomer, unassigned) [Example 6-6 Isomer 1]	19.1
COC(=O)N1C2COCC1CC(N1CCC(N(CC3(C)CCC3)C(C)=O)CC1)C2 (single isomer, unassigned) [Example 8-1 Isomer 1]	155
CCOC(=O)N1C2COCC1CC(N1CCC(c3cccnc3OC)CC1)C2 (single isomer, unassigned) [Example 2-2 Isomer 1]	36.3
CCOC(=O)N1C2COCC1CC(N1CCC(N(CC(C)C)C(C)=O)CC1)C2 (single isomer, unassigned) [Example 6-1 Isomer 2]	17.4

Moving on to another molecule below.
Req: Param item = CCOC(=O)N1C2COCC1CC(N1CCC3(CC1)OC(=O)NC3CC)C2 (single isomer, unassigned) [Example 5-4 Isomer 1a] ; retrieve measured EC50.
Resp: 145
